These measurements were taken from ChEMBL document CHEMBL3988442.

system: Wolbachia pipientis; test: Anti-Wolbachia Cell-Based Screen; assay type: functional; design: scale not given: in the data most compounds retested in dose-response had high values; settings: 5 µM
Among all 48,000 compounds or so, about 13,000 (27%) showed an effect of 50% or more. Some of the results follow.
Kindly apply the following: t if Percent Effect is less than 10%, f in every other case.

**Query** Find out if reported Percent Effect for COCCc1noc(Cn2c(=O)[nH]c3ccccc32)n1 is less than 10%
**Result** f

**Query** How about COc1cccc(C(=O)N2CC[C@@H]3[C@H](CC2)N(C)CCS3(=O)=O)c1.O=C(O)C(F)(F)F ?
**Result** t

**Query** Record: Cc1nc(CCN)cc(N2CCOc3ccc(Cl)cc3C2)n1
**Result** f

**Query** Consider next the compound CCn1nccc1CN(C)C(=O)Cn1nc(C)c(C)c1C in the same way.
**Result** f

**Query** Would you mind doing Cc1ccccc1N1CCN(C(=O)Cc2ccc3c(c2)OCO3)CC1=O as well?
**Result** t

**Query** Then CC(=O)N[C@@H]1CN(Cc2ccccc2-n2cccn2)C[C@H]1C(C)C ?
**Result** t

**Query** # iterate: Cc1ccnc(NCCNC(=O)Cc2c(C)[nH]c3c(C)ccc(C)c23)c1
**Result** t

**Query** Please answer likewise for CNC(=O)Cc1ccc(NC(=O)NCC(C)c2ncc(C)s2)cc1 (centres undefined)
**Result** t

**Query** Please do the same for CN(C)Cc1nn(C)c2c1CCN(C(=O)c1cccnc1)C2 as well.
**Result** f

**Query** Please do the same for Cc1[nH]c2ccc(CNC(=O)c3ccc(CN4CCCC4)o3)cc2c1C as well.
**Result** f

**Query** // repeat for CCCNC(=O)NCc1ccccc1NS(=O)(=O)c1ccccc1 and report
**Result** t

**Query** Let us now turn to Cc1cc(C)c2nc(CN3CCC(N4CCOC4=O)CC3)cc(O)c2c1
**Result** t

**Query** Param item: CCc1nc(CC)n(CC(=O)N(C)Cc2ccc(F)cc2)n1
**Result** t

**Query** Then this compound: COCc1noc(Cn2c(C3CC3)nc3ccccc32)n1
**Result** f

**Query** Then this compound: CN(C)C(=O)CCNC(=O)c1cnc(-c2ccccc2)nc1
**Result** t

**Query** Input O=C1O[C@@H]2CN(Cc3cc4ccccc4o3)C[C@@H]2N1Cc1ccccn1
**Result** t

**Query** For COCc1noc(Cn2ncn3cccc3c2=O)n1 then?
**Result** t

**Query** Let us now turn to Cc1ncsc1CCN(C)C(=O)c1ncccc1O
**Result** t

**Query** Do the same for COc1ccc(C(=O)N2CC[C@@H]3[C@H](CC2)N(C)CCS3(=O)=O)cc1.O=C(O)C(F)(F)F please
**Result** t

**Query** What about this compound? COCC(=O)N1CCC2(CC1)CN(c1ncccn1)CCO2
**Result** t

**Query** Item: CN(C)Cc1nn(C)c2c1CN(C(=O)c1cccc(C#N)c1)C2
**Result** f

**Query** Try this compound next: CCn1nccc1CN(C)C(=O)Cn1nc(C)cc1C
**Result** f

**Query** Next compound up: CCN1CCC2(CN(C(=O)N(C)C)CC23CCN(CC2CC2)CC3)C1=O.O=C(O)C(F)(F)F (centres undefined)
**Result** t

* * *

test system: Wolbachia pipientis; test: Anti-Wolbachia Cell-Based Screen; type: functional; design: scale not given: in the data most compounds retested in dose-response had high values; details: 5 µM
Screen size: about 48,000 compounds; about 13,000 (27%) showed an effect of 50% or more. This is one part of the list.
attribute measured: Percent Effect
Record the result as number plus unit.

**Query** If you can, please state the reported Percent Effect value of COCCOC1CCN(C(C(=O)O)c2ccc3c(c2)OCO3)CC1 (stereo not drawn) .
**Result** 111.3%

**Query** Similarly, O=C1N(Cc2cccc(F)c2F)CCCC1(O)CN1CCCOCC1 (stereo not drawn) ?
**Result** -6.352%

**Query** One more compound: COc1cccc(OCC2CCCN(C(=O)Cc3cccc(O)c3)C2)c1 (stereo not drawn)
**Result** -41.73%

* * *

test system: Wolbachia pipientis; assay: Anti-Wolbachia Cell-Based Screen; assay type: functional; set-up: scale not given: in the data most compounds retested in dose-response had high values; conditions: 5 µM
In all, about 48,000 compounds went through this assay and about 13,000 (27%) showed an effect of 50% or more. The list shows a part of the results.
Threshold check on Percent Effect: strictly below 10% is criterion met; on or above 10% is criterion not met.

**Query** Is Percent Effect strictly under 10% for the entry CCN(C(=O)c1nc2c(s1)CCCN2Cc1ccccc1)C(C)C ?
**Result** criterion met

**Query** Item: Cc1ccc(S(=O)(=O)N2CCOCC2C#N)cc1Br (stereo not given)
**Result** criterion met

**Query** Now the same for Cc1noc(C)c1CN(C)Cc1csc(-c2ccc(C(C)C)cc2)n1
**Result** criterion met

**Query** Try the compound COCCC(=O)N1CCCC1c1cccc(C)c1C (stereo not given)
**Result** criterion met

**Query** Subsequent entry: CN1CCC(N2CCCC(C(=O)N3Cc4ccccc4C3)C2)CC1 (stereo not given)
**Result** criterion not met

**Query** What do you get for CN(Cc1ccccc1F)C(=O)COC(=O)c1cc(Cl)c[nH]1 ?
**Result** criterion not met

**Query** Cool, now CC(C)CCN1CCN(c2ncnc3nc(N)ccc23)CC1
**Result** criterion met

**Query** For CC(=O)N1CCCc2sc(C(=O)NC3CC3)nc21 then?
**Result** criterion met

**Query** Ok, now CCOCCCNC(=O)Cc1cccc(F)c1
**Result** criterion met

**Query** Another compound to look at: COc1cc(Br)c(S(=O)(=O)NC(=O)C(C)OC)cc1OC (stereo not given)
**Result** criterion met

**Query** Likewise for O=C(c1ccc[nH]1)N1CCN(C(c2ccccc2)C(F)(F)F)CC1 (stereo not given) ?
**Result** criterion met

**Query** One more compound: CCc1cc(CN(C)Cc2nc(-c3sccc3C)oc2C)on1
**Result** criterion met

**Query** Query CC[C@H](Nc1nc(C(C)C)nc2c1cnn2C)c1ccccc1 next
**Result** criterion met

**Query** Repeat for the following compound: CCOCCCNC(=O)CN(c1cccc(F)c1)S(C)(=O)=O
**Result** criterion not met

**Query** Next compound: Cc1ccc(N(C)C2CCN(C(=O)CCc3ccco3)CC2)nn1
**Result** criterion met

**Query** And what about the compound COC(=O)c1ccc(OCC(=O)N(C)Cc2ccsc2)c(OC)c1 ?
**Result** criterion met

**Query** Another: CCN(C(=O)c1nc2c(s1)CCCN2C)C(C)C
**Result** criterion not met

**Query** Do the same for O=C1CCCc2occ(C(=O)N3CCCC(O)(CO)C3)c21 (stereo not given) please
**Result** criterion met

**Query** Okay, and Cc1cnc(NC(=O)N2CCOCC2)s1 ?
**Result** criterion met

**Query** Note, next up: COCCC(=O)N1CCCC1c1nc(C)c2c(n1)N(C)C(=O)CC2 (stereo not given)
**Result** criterion not met

**Query** CC(=O)N1CCCc2sc(C(=O)Nc3ccc(C)nc3)nc21 ?
**Result** criterion met

**Query** Same for CCN(C(=O)c1ccc2nnc(C3CCN(C)C3)n2c1)C(C)C.O=C(O)C(F)(F)F (stereo not given)
**Result** criterion met

**Query** Also Cc1ccc(N2CCC3(CCN(C(=O)C4CCOC4)CC3)CC2)nn1 (stereo not given) , if possible.
**Result** criterion met

**Query** Queued: COCC(=O)N1CCCC1c1nc(C)c2c(n1)N(CC(C)C)C(=O)CC2 (stereo not given)
**Result** criterion not met

**Query** Here is the next compound: O=C(C1CCCN(C2CCOCC2)C1)N1CCc2ncccc2C1 (stereo not given)
**Result** criterion not met

**Query** Next compound: Cn1cc(CN2CCCn3cnc(COCc4ccco4)c3C2)cn1
**Result** criterion met

**Query** Quick one: CN(Cc1cccs1)C1CCC[C@@H]2CN(C(N)=O)C[C@H]12.O=C(O)C(F)(F)F (stereo not given in full)
**Result** criterion met

**Query** Same question, Cc1ccc(N(C)[C@@H]2CC[C@@H]3CN(C(=O)C4CCOCC4)C[C@@H]32)nn1 this time
**Result** criterion not met

**Query** Field entry: O=C(COc1ccccc1F)N1CCCCC1c1ccn2ccnc2n1 (stereo not given)
**Result** criterion not met

**Query** # repeat for CC(C)(C)OC(=O)N1CCCCC(NC(=O)CCc2cccnc2)C1 (stereo not given)
**Result** criterion not met

**Query** O=C(C1CCCN(Cc2cccnc2)C1)N1CCc2sccc2C1 (stereo not given) , same question.
**Result** criterion met

**Query** Another compound to look at: O=C(C1CCOCC1)N1CCc2ncnc(-c3ccccc3)c2CC1
**Result** criterion met

**Query** And then c1ccc(-c2cc(CN3C[C@@H]4CC[C@H](C3)N(CC3CCC3)C4)on2)cc1 , what is it?
**Result** criterion not met

**Query** Cc1ccc(N2C[C@H](C(=O)NCC3CC3)[C@@H]3CCO[C@@H]3C2)nn1.O=C(O)C(F)(F)F ?
**Result** criterion met

**Query** What do you get for COCC(=O)N1CCCCC1c1nc(C)c2c(n1)N(C1CC1)C(=O)CC2 (stereo not given) ?
**Result** criterion not met

**Query** Continue with COCCCNC(=O)CN(C)Cc1ccc(F)cc1Cl
**Result** criterion met

**Query** COCC(=O)N1CCCCC1c1nc(C)c2c(n1)N(CC1CC1)C(=O)C2 (stereo not given) ?
**Result** criterion not met

**Query** Thanks! And CCN(C(=O)c1nc2c(s1)CCCN2C(C)=O)C(C)C ?
**Result** criterion not met

**Query** Check O=C(C1CCCN(Cc2ccccc2)C1)N1CCc2sccc2C1 (stereo not given) too.
**Result** criterion not met
